sequences and their reported recombinant barcode read abundance (log10)
assay: recombinant barcode read abundance after kanamycin selection (control-corrected) (log10(CPM+1)); higher = more efficient recombination; sequences stand for … in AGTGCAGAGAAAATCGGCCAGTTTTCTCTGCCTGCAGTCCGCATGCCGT…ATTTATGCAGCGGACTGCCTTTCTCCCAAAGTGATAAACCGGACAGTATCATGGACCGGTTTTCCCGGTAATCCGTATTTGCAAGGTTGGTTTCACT; site = the 11-nt target
test.readout: recombinant barcode read abundance (log10)

# sequence.input, result.number
records = [
    ("TAAGAATCCTGGGTTCTAACCTGTTGCCTGG [TAAGAATCTAG_LTGcore_CC_RTGcore_CC] (site TAAGAATCTAG) (LTG core: CC, RTG core: CC)", 0.0748),
    ("TGTATTCCTTGGGTTCTAACCTGTTGCCTTT [TGTATTCCTAG_LTGcore_CT_RTGcore_AA] (site TGTATTCCTAG) (LTG core: CT, RTG core: AA)", 0.0134),
    ("TTATAAACTTGGGTTCTAACCTGTTGCCTTC [TTATAAACTAG_LTGcore_CT_RTGcore_GA] (site TTATAAACTAG) (LTG core: CT, RTG core: GA)", 0.0607),
]
